TARGET OR TEST SYSTEM: human TLR8 (Homo sapiens, UniProt Q9NR97)
Construct: expressed in transfected cells; host or cells: HEK293
Sequence (Q9NR97 27-1041): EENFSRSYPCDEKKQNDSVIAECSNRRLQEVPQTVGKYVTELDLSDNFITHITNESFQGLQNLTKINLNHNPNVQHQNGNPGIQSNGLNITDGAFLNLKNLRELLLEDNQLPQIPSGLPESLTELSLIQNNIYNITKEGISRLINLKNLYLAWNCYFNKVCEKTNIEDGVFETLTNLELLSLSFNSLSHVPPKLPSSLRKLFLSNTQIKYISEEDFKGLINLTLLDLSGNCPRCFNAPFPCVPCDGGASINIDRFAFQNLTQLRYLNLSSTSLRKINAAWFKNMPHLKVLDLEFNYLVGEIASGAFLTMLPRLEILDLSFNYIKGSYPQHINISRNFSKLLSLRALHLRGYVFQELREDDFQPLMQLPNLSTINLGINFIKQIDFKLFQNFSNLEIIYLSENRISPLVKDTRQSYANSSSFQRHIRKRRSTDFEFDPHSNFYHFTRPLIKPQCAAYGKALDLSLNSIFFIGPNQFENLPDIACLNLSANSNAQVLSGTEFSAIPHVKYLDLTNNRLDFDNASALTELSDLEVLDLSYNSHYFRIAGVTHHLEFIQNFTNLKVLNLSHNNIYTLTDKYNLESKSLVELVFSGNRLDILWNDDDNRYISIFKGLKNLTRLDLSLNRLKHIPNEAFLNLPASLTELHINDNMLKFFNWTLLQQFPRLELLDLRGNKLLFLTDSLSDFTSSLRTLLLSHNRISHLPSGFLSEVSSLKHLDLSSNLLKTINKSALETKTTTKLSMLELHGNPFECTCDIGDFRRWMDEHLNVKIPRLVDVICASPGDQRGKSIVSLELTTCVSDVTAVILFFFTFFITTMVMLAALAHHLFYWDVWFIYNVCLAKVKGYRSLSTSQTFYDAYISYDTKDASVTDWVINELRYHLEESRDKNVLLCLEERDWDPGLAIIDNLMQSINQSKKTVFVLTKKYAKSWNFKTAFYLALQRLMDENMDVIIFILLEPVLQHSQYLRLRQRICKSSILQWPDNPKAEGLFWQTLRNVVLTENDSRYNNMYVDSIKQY
EXPERIMENTAL PROTOCOL: TLR8 wild type NFκB-luc cellular reporter assay
Type: cell-based
Set-up: unit not given here
PROTOCOL CONDITIONS: HEK293 NFκB-luc reporter, 6 hours incubation; second part of table
Can you tell me TLR8-wt (LEC) for the items I'm about to list?
Output: the number by itself.

Item: CCC[C@@H](CO)Nc1nc(N)nc2c(C)cccc12 [Compound 43] | System: human TLR8 (Homo sapiens, UniProt Q9NR97) | TLR8-wt (LEC): 0.12

Item: CCC[C@@H](CO)Nc1nc(N)nc2cccc(C)c12 [Compound 46] | System: human TLR8 (Homo sapiens, UniProt Q9NR97) | TLR8-wt (LEC): 0.04

Item: CCC[C@@H](CCO)Nc1nc(N)nc2c(F)cccc12 [Compound 63] | System: human TLR8 (Homo sapiens, UniProt Q9NR97) | TLR8-wt (LEC): 0.15

Item: CCCC[C@@H](CO)Nc1nc(N)nc2c(F)cccc12 [Compound 59] | System: human TLR8 (Homo sapiens, UniProt Q9NR97) | TLR8-wt (LEC): 0.04

Item: CCCC[C@@H](CCO)Nc1nc(N)nc2cccc(C)c12 [Compound 75] | System: human TLR8 (Homo sapiens, UniProt Q9NR97) | TLR8-wt (LEC): 0.06

Item: CCC[C@@H](CCO)Nc1nc(N)nc2ccc(C(C)C)cc12 [Compound 26] | System: human TLR8 (Homo sapiens, UniProt Q9NR97) | TLR8-wt (LEC): 1.97

Item: CCC[C@@H](CCO)Nc1nc(N)nc2ccc(OC)cc12 [Compound 79] | System: human TLR8 (Homo sapiens, UniProt Q9NR97) | TLR8-wt (LEC): 2.97

Item: CCCCNc1nc(N)nc2cccc(C)c12 [Compound 36] | System: human TLR8 (Homo sapiens, UniProt Q9NR97) | TLR8-wt (LEC): 0.26

Item: CCCCNc1nc(N)nc2cccc(CCc3ccccn3)c12 [Compound 12] | System: human TLR8 (Homo sapiens, UniProt Q9NR97) | TLR8-wt (LEC): 0.79

Item: CCCCNc1nc(N)nc2ccc(C#CC(C)O)cc12 (stereo not shown) [Compound 14] | System: human TLR8 (Homo sapiens, UniProt Q9NR97) | TLR8-wt (LEC): 4.77
